These data points were gathered from ChEMBL document CHEMBL5113395.

- study-target: Histone deacetylase 1 (Homo sapiens, UniProt Q13547)
- Sequence (Q13547 whole entry): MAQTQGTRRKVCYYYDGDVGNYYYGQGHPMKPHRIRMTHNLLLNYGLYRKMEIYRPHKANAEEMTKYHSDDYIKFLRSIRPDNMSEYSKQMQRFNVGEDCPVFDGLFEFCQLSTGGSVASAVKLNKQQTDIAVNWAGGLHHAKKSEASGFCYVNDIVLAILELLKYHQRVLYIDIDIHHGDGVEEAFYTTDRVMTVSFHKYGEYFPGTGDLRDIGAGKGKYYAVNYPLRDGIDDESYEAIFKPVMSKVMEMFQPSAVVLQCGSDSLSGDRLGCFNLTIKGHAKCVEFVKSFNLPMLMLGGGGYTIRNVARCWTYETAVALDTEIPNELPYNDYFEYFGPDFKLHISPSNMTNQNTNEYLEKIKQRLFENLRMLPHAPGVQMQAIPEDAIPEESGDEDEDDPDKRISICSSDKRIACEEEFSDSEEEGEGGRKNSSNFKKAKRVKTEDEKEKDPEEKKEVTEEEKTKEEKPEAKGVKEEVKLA
- experiment-notes: Inhibition of recombinant human full length C-terminal FLAG/His-tagged HDAC1 expressed in Sf9 insect cells using ZMAL (Z-(Ac)Lys-AMC as substrate at 1 uM measured after 90 mins by fluorescence plate reader analysis relative to control
Listing of recorded inhibition by entry.
Only the number, expressed in %, is required.

// returns reported inhibition for input O=C(/C=C/c1ccc(C(=O)N2CCC(N3C(=O)[C@H](c4ccccc4)[C@H]3c3ccccc3)CC2)cc1)NO (racemic) 61

###

- study-target: Histone deacetylase 1 (Homo sapiens, UniProt Q13547)
- experiment-notes: Inhibition of recombinant human full length C-terminal FLAG/His-tagged HDAC1 expressed in Sf9 insect cells using ZMAL (Z-(Ac)Lys-AMC as substrate at 1 uM measured after 90 mins by fluorescence plate reader analysis relative to control
readout-kind: inhibition
Write down the value, and be sure its unit follows.

Solved cases (2 shown):
# molecule, inhibition
data = [
    ("O=C(NO)c1ccc(/C=C/C(=O)N2CCC(N3C(=O)[C@H](c4ccccc4)[C@H]3c3ccccc3)CC2)cc1 (racemic)", "49.7%"),
    ("O=C(NO)c1ccc(CCC(=O)N2CCC(N3C(=O)[C@H](c4ccccc4)[C@H]3c3ccccc3)CC2)cc1 (racemic)", "17.2%"),
]

# evaluate next
// returns reported inhibition for input O=C(CCc1ccc(C(=O)N2CCC(N3C(=O)[C@H](c4ccccc4)[C@H]3c3ccccc3)CC2)cc1)NO (racemic) 22.3%
